Target Desc: human MCHR1 (Homo sapiens, UniProt Q99705)
Construct: host or cells: CHO
Sequence (Q99705 whole entry): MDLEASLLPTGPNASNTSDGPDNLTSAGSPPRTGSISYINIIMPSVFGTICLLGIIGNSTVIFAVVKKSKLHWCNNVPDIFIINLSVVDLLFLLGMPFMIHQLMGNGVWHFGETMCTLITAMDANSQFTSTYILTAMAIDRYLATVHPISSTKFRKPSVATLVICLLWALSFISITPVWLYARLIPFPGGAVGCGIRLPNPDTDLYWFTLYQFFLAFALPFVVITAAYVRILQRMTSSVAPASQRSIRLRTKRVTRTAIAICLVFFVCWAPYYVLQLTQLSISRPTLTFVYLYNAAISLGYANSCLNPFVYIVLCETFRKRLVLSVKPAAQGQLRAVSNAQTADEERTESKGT
Procedure Summary: Cyclic AMP assay (MCHR-1 functional antagonism)
Type: cell-based
Assay Conditions: CHO cells stably expressing human MCHR1; cAMP accumulation with 25 uM forskolin and 0.2 nM MCH, 90 min; Ki from IC50 by Cheng-Prusoff; read-out: MCHR-1 functional Ki
Experimental: CHO cell lines stably expressing the human MCHR1 (Euroscreen, Brussels, Belgium) were maintained in DMEM containing Glutamax (Invitrogen, Carlsbad, Calif.), 10% FBS, 400 ug/ml Geneticin. Cyclic AMP assays. […] Cells were incubated at 37° C./5% CO2 for 90 minutes and cAMP accumulation subsequently determined by DiscoveRx Hithunter c-AMP II Assay kit (GE Healthcare, Buckinghamshire, UK) in accordance with manufactures instructions. […]
pKi: −log10 of the molar value.
Observation Type: pKi

>>> endpoint_result("CC(C)C1CN(c2ccc(-n3ccc(OCc4ccccc4)cc3=O)cn2)CCN1 (stereo not shown) [Example 221]")
6.90
>>> endpoint_result("COC(=O)N[C@@H]1CCN(c2ccc(-n3ccc(OCc4ccc(F)cc4)cc3=O)cn2)C1 [Example 192]")
6.84
>>> endpoint_result("NC1CN(c2ccc(-n3ccc(OCc4ccccc4)cc3=O)cn2)C1 [Example 232]")
6.62
>>> endpoint_result("CCN(C(=O)OC(C)(C)C)[C@@H]1CCN(c2ccc(-n3ccc(OCc4ccccc4)cc3=O)cn2)C1 [Example 23a]")
7.80

Data provenance is patent US20080085884A1.
